Hello, the source for this data is the nanobody polyreactivity screen of Harvey et al. (2022), in case you need it.

Assay: yeast display, Sf9 membrane polyspecificity reagent, FACS + sequencing; frameworks hold sequencing errors
measured_quantity: polyreactivity (PSR sort gate)

Check out these entries, answers already filled in.
QVQLVESGGGLVQAGGSLRLTCAASGFIFNRYAMGWYRQAPGKERELDADLTGGSTYYAVSVKGRFTISRDNAKKSVYLQLNSVTPEDTAVDYCAADVLPISTLLFRGPGFDSWGQGTQVTFSS: low polyreactivity
QVQLVESGGGLVQAGGSLRLSCAASGSILEVYAMGWYRQAPGKERELVAAISDGDSTYYADSVKGRFTISRDNAKNTVYLQMNSLKPEDTAGYYCAAEFVGTLWWYDYWGQGTQVTVSS: low polyreactivity
QVQLVESGGGLVQAGGRLRLSCAASGRIFVHNAMGWYRQAPGKERELVAAISQNGGRTYYADSVKGRFTISRDNAKNTVYLQLNSLKPEDTAVYYCAAGQARAGLIGGYWGQGTQVTVSS: high polyreactivity
QVQLLESGGGLVQAGGSLRLSCAASGFIFYHYAMGWYIQAPGKERELVAANSRSGTSTYYADSVKGRFTISRDNAKNTVYLQMNSLKPEDTAVYYCNAVYTRYVYYYYEYDYWGQGTQVTVSS: high polyreactivity
QVQLVESGRGLVQAGGSLRISCAASGSTFGYYAMGWYRQAPGKERELVAAITSTGRTKYADSVKGRFTISRDNAKNTVYLQMNSLKPEDTAVYYCAADIWGQGTQVTVSS: high polyreactivity

Task item: Entry QVQLVESGGGLVQAGGSLRLICAASGITYRYAMGWYRQAPGKERELVAAITSSGASTYYADSVKGRFTISRDNAKNTVYLQMNSLKPEDTAVYYCATPLRKVYGGYVYWGQGTQVTVSS : reported polyreactivity (PSR sort gate) = ?
Reply: low polyreactivity

Task item: Recorded polyreactivity (PSR sort gate) for QVHLVESGGGLVQAGGRLRLSCDASGRTFKGYAMGWYRQAPGQERELGAAISFTGGSTYYADSVKGRFTISRDNAKNPVDLQMNSLKPEDTAVYYCNAVNYRGYGYWGQGTQVTVSS , please?
Reply: high polyreactivity
